System: HUVEC
assay name: Antiinflammatory activity in human HUVEC assessed as inhibition of HMGB1-induced human neutrophils migration into cells at 10 uM after 6 hrs using crystal violet staining
Format: functional
So I've got a bunch of compounds here, and I need their inhibition at 10 µM values.
The answer is to be given in %; state only the numeric part.

Recorded inhibition at 10 µM (compound COc1cc(/C=C/C(=O)Oc2ccc3[nH]c4ccccc4c3c2)cc(OC)c1OC ): 65.4

So for COc1ccc(/C=C/C(=O)Nc2ccc3[nH]c4ccccc4c3c2)cc1 , the logged inhibition at 10 µM turned out to be 4.8

# inhibition at 10 µM of COc1ccc(/C=C/C(=O)Nc2ccc3[nH]c4ccccc4c3c2)cc1OC = 43.5

Per the record, COc1cc(/C=C/C(=O)Nc2ccc3[nH]c4ccccc4c3c2)cc(OC)c1OC has inhibition at 10 µM of 62
